Test system: K562 CRISPRi cells
MEASUREMENT NOTES: Constant region variant library pooled growth screen, K562
Format: cell-based, human
CONDITION: sgRNA constant region variants; activity relative to the original, un-modified constant region cr995
Would you mind telling me the reported Mean relative activity of each entry?
Please reply with the value in numeric form only.

Exercise: Given the molecule cr552 (nucleic acid, listed as DNA, chemistry not fully specified) guide: GTTTAAGAGCTAAGCTGGAAACAGCATAGCAAGTTTAAATAAGGCTAGTCCGATGGCAACTTGAAAAAGTGGCACCGAGTCGGTGCT , what is its reported Mean relative activity?
Solution: 0.6864

Exercise: Name the reported Mean relative activity value associated with the molecule cr667 (nucleic acid, listed as DNA, chemistry not fully specified) guide: GTTTAAGAGCTAAGCTGGAAACAGCATAGCAAGCTTAAATAAGGCTAGTCCGTTATCAACTCGAAAGAGTGGCACCGAGTCGGTGCT
Solution: 0.6533
